cell viability reference
Tested on: HepG2
experiment: cell viability relative to DMSO; higher = less toxic
recorded_conditions: 72 h; 1000 nM

compound | cell viability, %
CN(C)[C@@H]1C(O)=C(C(N)=O)C(=O)[C@@]2(O)C(O)=C3C(=O)c4c(O)ccc(Cl)c4[C@@H](O)[C@H]3C[C@@H]12 | 102
Clc1ccc(-c2nc3sccn3c2/C=N/OCc2ccc(Cl)c(Cl)c2)cc1 | 104
CNCCCN1c2ccccc2CCc2ccccc21 | 113
CCc1ccc(C(=O)C(C)CN2CCCCC2)cc1 (centres undefined) | 95.4
C[C@H]1CN(C[C@H](Cc2ccccc2)C(=O)NCC(=O)O)CC[C@@]1(C)c1cccc(O)c1 | 99.3
Cc1[nH]c2ccc(F)cc2c1-c1nc2c3cccnc3c3ncccc3c2[nH]1 | 92.1
NC1=NCC2c3ccccc3Cc3ccccc3N12 (centres undefined) [epinastine] | 99.1
O=C1C=CC(=O)C2=C1C1c3ccccc3C2c2ccccc21 | 106
O=C(O)c1ccc(S(=O)(=O)N(Cl)Cl)cc1 | 107

###

System: U2OS
experiment: cell viability relative to DMSO; higher = less toxic
recorded_conditions: 72 h; 10 nM
cell viability reference

compound | measure_unit | cell viability
N#Cc1cc(CN2CCC(Nc3ncnc4sc(Cl)cc34)CC2)ccc1F | % | 98.6
C=CC(=O)Nc1cccc(Nc2nc(Nc3ccc(NC4CN(CCF)C4)cc3OC)ncc2C(F)(F)F)c1 [CNX-2006] | % | 98.7
Cc1nc2c(O)cccc2c(=O)[nH]1 [NU-1025] | % | 100
Cc1ccc(C(=O)N(CCCN)[C@@H](c2nc3cc(Cl)ccc3c(=O)n2Cc2ccccc2)C(C)C)cc1 [ispinesib] | % | 92.1
CNC(=O)CN(CCN(CCN(CC(=O)[O-])CC(=O)NC)CC(=O)[O-])CC(=O)[O-].[Gd+3] [gadodiamide] | % | 102
N=C(N)c1cc2ccc(OC(=O)c3cccs3)cc2s1 [BCX-1470] | % | 100
COc1cccc(OC)c1C(=O)N[C@@H]1C(=O)N2[C@@H]1SC(C)(C)[C@@H]2C(=O)O [methicillin] | % | 94.7
CC[C@H]1OC(=O)[C@@](C)(F)C(=O)[C@H](C)[C@@H](O[C@@H]2O[C@H](C)C[C@H](N(C)C)[C@H]2O)[C@](C)(OC)C[C@@H](C)C(=O)[C@H](C)[C@H]2N(CCCCn3cc(-c4cccc(N)c4)nn3)C(=O)O[C@]12C [solithromycin] | % | 95.5
CC[C@@H](CO)NC(=O)[C@@H]1C=C2c3cccc4[nH]cc(c34)C[C@H]2N(C)C1 [methylergometrine] | % | 99.1
Nc1nccc(Oc2ccc(NC(=O)c3c[nH]cc(-c4ccc(F)cc4)c3=O)cc2F)c1Cl [metatinib] | % | 102
O=C(O)C(O)Cc1ccc(O)c(O)c1 (configuration not stated) [sodium-danshensu] | % | 96.2
CO/N=C(\C(=O)N[C@@H]1C(=O)N2C(C(=O)[O-])=C(C[n+]3ccn4ncccc43)CS[C@H]12)c1nsc(N)n1 [cefozopran] | % | 97.7
OC(c1ccccc1)(c1ccccc1)C12CC[N+](CCOCc3ccccc3)(CC1)CC2 [umeclidinium] | % | 99.2
C=CCn1c(=O)c2cnc(Nc3ccc(N4CCN(C)CC4)cc3)nc2n1-c1cccc(C(C)(C)O)n1 [MK-1775] | % | 95.7
CCOP(=S)(OCC)Oc1nc(Cl)c(Cl)cc1Cl [chlorpyrifos] | % | 102
CN(Cc1cc(Br)cc(Br)c1N)C1CCCCC1 [bromhexine] | % | 105
CC[N+](C)(CC)CCC[n+]1c(-c2ccccc2)c2cc(N)ccc2c2ccc(N)cc21 [propidium-iodide] | % | 103
Cc1ccc(Cl)c(OCC(O)CNC(C)(C)C)c1 (configuration not stated) [bupranolol] | % | 98.1
CCn1c2ccccc2c2cc(CNC)ccc21 [PhiKan-083] | % | 100
CC(C)=CCC[C@](C)(O[C@@H]1O[C@H](CO)[C@@H](O)[C@H](O)[C@H]1O)[C@H]1CC[C@]2(C)[C@@H]1[C@H](O)C[C@@H]1[C@@]3(C)CC[C@H](O)C(C)(C)[C@@H]3CC[C@]12C [ginsenoside-C-K] | % | 94.7
CC1(CN)Cc2ccccc2C1 [ORG-9768] | % | 98
Cn1cc(C(=O)C(=O)N[C@H]2CN3CCC2CC3)c2ccccc21 | % | 107

Numbers sourced from the supplement of paper PMC13380429.
